These entries and their values trace back to patent US20230121775A1.

biological target: Biotinylated CD3(Eµ antigen (Creative Biomart) (UniProt P07766 23-126, biotinylated (site not stated))); test: BLI (ForteBio BLItz), biotinylated CD3 antigen on streptavidin biosensor, scFv in solution
Sequence (P07766 23-126): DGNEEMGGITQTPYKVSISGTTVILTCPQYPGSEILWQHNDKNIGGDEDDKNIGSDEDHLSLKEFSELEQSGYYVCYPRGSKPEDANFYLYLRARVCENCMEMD
pKd values for the binders below.
Friendly reminder that pKd comes from taking -log10 of the concentration in mol/L.

Reference set, count: 3
INSERT INTO results (binder, obs_value) VALUES
  ('CD3.23 scFv (scFv, VL-linker-VH scFv; also called hCD3.23; aCD3.23) scFv: ELVVTQEPSLTVSPGGTVTLTCRSSNGAVTSSNYANWVQQKPGQAPRGLIGGTNKRAPGTPARFSGSLLGGKAALTLSGVQPEDEAVYYCALWYPNLWVFGGGTKLTVLGATPPETGAETESPGETTGGSAESEPPGEGEVQLLESGGGIVQPGGSLKLSCAASGFTFNTYAMNWVRQAPGKGLEWVARIRSKYNNYATYYADSVKDRFTISRDDSKNTVYLQMNNLKTEDTAVYYCVRHENFGNSYVSWFAHWGQGTLVTVSS', 6.76),
  ('CD3.25 scFv (scFv, VL-linker-VH scFv) scFv: ELVVTQEPSHTVSPGGTVTLTCRSSTGAVTSSNYANWVQQKPGQAPRGLIGGTIKRAPGTPARFSGSLLGGKAALTLSGVQPEDEAEYYCALWYPNLWVFGGGTKLTVLGATPPETGAETESPGETTGGSAESEPPGEGEVQLLESGGGIVQPGGSLKLSCAASGFTFNTYAMNWVRQAPGKGLEWVARIRSKYNNYATYYADSVKDRFTISRDDSKNTVYLQMNNLKTEDTAVYYCVRHENFGNSYVSWFAHWGQGTLVTVSS', 6.67),
  ('CD3.24 scFv (scFv, VL-linker-VH scFv) scFv: ELVVTQEPSLTVSPGGTVTLTCRSSNGEVTTSNYANWVQQKPGQAPRGLIGGTIKRAPGTPARFSGSLLGGKAALTLSGVQPEDEAVYYCALWYPNLWVFGGGTKLTVLGATPPETGAETESPGETTGGSAESEPPGEGEVQLLESGGGIVQPGGSLKLSCAASGFTFNTYAMNWVRQAPGKGLEWVARIRSKYNNYATYYADSVKDRFTISRDDSKNTVYLQMNNLKTEDTAVYYCVRHENFGNSYVSWFAHWGQGTLVTVSS', 6.53);

Next binder, please.
[in] Looking for the measured pKd of CD3.9 scFv (parental anti-CD3 scFv) (scFv, VL-linker-VH scFv; also called hCD3.9; aCD3.9) scFv: ELVVTQEPSLTVSPGGTVTLTCRSSTGAVTTSNYANWVQQKPGQAPRGLIGGTNKRAPGTPARFSGSLLGGKAALTLSGVQPEDEAEYYCALWYSNLWVFGGGTKLTVLGATPPETGAETESPGETTGGSAESEPPGEGEVQLLESGGGLVQPGGSLKLSCAASGFTFNTYAMNWVRQAPGKGLEWVARIRSKYNNYATYYADSVKDRFTISRDDSKNTAYLQMNNLKTEDTAVYYCVRHGNFGNSYVSWFAYWGQGTLVTVSS , can you help?
[out] 7.12
